meta.source: paper PMC7072677

Record form. Attribute: IC50. Fill in for each entry.
systemName: equine serum BChE (Equus caballus, UniProt P81908)
Sequence (P81908 whole entry): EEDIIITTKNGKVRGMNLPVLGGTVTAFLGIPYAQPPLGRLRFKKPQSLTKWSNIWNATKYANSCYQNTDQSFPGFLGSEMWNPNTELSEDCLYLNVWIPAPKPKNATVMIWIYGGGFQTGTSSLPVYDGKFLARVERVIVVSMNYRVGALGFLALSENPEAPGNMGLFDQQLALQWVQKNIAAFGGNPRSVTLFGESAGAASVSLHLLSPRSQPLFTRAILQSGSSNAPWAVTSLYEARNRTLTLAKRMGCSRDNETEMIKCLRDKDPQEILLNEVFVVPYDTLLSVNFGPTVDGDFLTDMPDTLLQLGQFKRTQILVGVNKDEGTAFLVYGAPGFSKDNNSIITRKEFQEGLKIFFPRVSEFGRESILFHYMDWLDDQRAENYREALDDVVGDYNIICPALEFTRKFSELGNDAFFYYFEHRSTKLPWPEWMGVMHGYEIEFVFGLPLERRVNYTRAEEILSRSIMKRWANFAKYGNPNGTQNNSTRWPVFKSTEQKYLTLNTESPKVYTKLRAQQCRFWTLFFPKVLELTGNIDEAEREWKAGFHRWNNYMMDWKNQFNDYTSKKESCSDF
protocolNotes: biochemical
conditionNotes: 10 min preincubation, ATCh 1 mM, N = 11; read-out: BChE IC50, inhibition of ATCh hydrolysis

CCCCC/C=C\C/C=C\C/C=C\C/C=C\CCCC(=O)OCC[N+](C)(C)C : 170 µM
CCCCC/C=C\C/C=C\CCCCCCCC(=O)OCC[N+](C)(C)C : > 300 µM

# context switch: different compound, same IC50
What is its IC50 for equine serum BChE (Equus caballus, UniProt P81908)? Entry: CC/C=C\C/C=C\C/C=C\C/C=C\C/C=C\C/C=C\CCC(=O)OCC[N+](C)(C)C
> 300 µM
